Origin of measurements: PubChem BioAssay (Tox21)

# Method Description: qHTS assay to identify aromatase inhibitors - cell viability counter screen (AID 743084);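 note: cells stimulated with testosterone during compound exposure; nearly all actives have a fitted effect of over 55% in size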
# Particulars: MCF-7 aro ERE viability, CellTiter-Fluor, 24 h; series mostly up to 70.3 µM
Results filed as inconclusive are left out. The source made the active and inactive calls. Calls come from the whole dose curve; as a rule, active = well fitted cell-killing curve with a large enough effect in the repeat runs; inconclusive = weak or mixed curves, or effect the other way; inactive = no such curve, though single readings can be large or run the other way.
Classes used: true (active), false (inactive)

CCCCN(CCCC)c1ccc(C(=O)c2ccccc2C(=O)O)c(O)c1	false
O=c1[nH]cnc2nc[nH]c12	false
Cc1c(C)c2c(c(C)c1O)CCC(C)(COc1ccc(CC3SC(=O)NC3=O)cc1)O2 (stereo unspecified)	false
N=C1C=CC(=C(c2ccc(N)cc2)c2ccc(N)cc2)C=C1	true
Cc1[nH]cnc1C[C@H]1CCc2c(C)c3ccccc3n2C1=O	false
O=C(c1ccc(O)cc1O)c1ccc(O)cc1O	false

* * *

# Method Description: qHTS assay to identify small molecule antagonists of the TGF-beta/Smad signaling pathway - cell viability counter screen (AID 1346824); note: nearly all actives have a fitted effect of over 50% in size
# Particulars: SBE-bla HEK293T viability, CellTiter-Glo luminescence; series mostly up to 76.8 µM
Inconclusive results are not listed. Active and inactive are the calls of the source. Calls come from the whole dose curve; as a rule, active = well fitted cell-killing curve with a large enough effect in the repeat runs; inconclusive = weak or mixed curves; inactive = flat fitted curve, though single readings scatter.
Classes used: yes for active, no for inactive

CC[C@@]1(O)C(=O)OCc2c1cc1n(c2=O)Cc2c-1nc1ccccc1c2/C=N/OC(C)(C)C	no
CC/C(=C(\c1ccc(O)cc1)c1ccc(OCCN(C)C)cc1)c1ccccc1	yes
CCCCCCCCCOC(=O)c1ccc(O)cc1	no
Oc1cc2ccccc2c2ccccc12	yes
Cc1cc(C2CCCCC2)n(O)c(=O)c1	no
CCc1cc(SCc2sc(-c3ccc(C(F)(F)F)cc3)nc2CN2CCN(c3ccc(OC)cc3)CC2)ccc1OCC(=O)O	no
CCCC(c1cc(C(C)(C)C)c(O)cc1C)c1cc(C(C)(C)C)c(O)cc1C	yes
CN(C)[C@@H]1C(=O)C(C(N)=O)=C(O)[C@@]2(O)C(=O)C3=C(O)c4c(O)ccc(Cl)c4[C@@H](O)[C@H]3C[C@@H]12	no
CSc1ccc2c(c1)C(N1CCN(C)CC1)Cc1ccccc1S2 (stereo unspecified)	no
Oc1ccc(N=Nc2ccccc2)cc1	no
CCC(C)(C)C1CCCCC1OC(C)=O (stereo unspecified)	no

* * *

# Method Description: qHTS assay to identify small molecule agonists of the TGF-beta/Smad signaling pathway - cell viability counter screen (AID 1346829); note: nearly all actives have a fitted effect of over 45% in size
# Particulars: SBE-bla HEK293T viability, CellTiter-Glo luminescence, 5 h; series mostly up to 76.8 µM
Inconclusive results are not listed. Active and inactive are the calls of the source. Calls follow the shape of the dose curve; as a rule, active = well fitted cell-killing curve with a large enough effect in the repeat runs; inconclusive = weak or mixed curves, or effect the other way; inactive = flat fitted curve, though single readings scatter.
Outcome codes: active, inactive

CNC(=O)c1ccccc1	inactive
N=C1N=C(N)c2ccccc21	inactive
CN(C)[C@@H]1C(=O)C(C(N)=O)=C(O)[C@@]2(O)C(=O)C3=C(O)c4c(O)cccc4C[C@H]3C[C@@H]12	inactive
Clc1ccc2nsnc2c1NC1=NCCN1	inactive
CCCCCCCCCCCCCCCS(=O)(=O)Oc1ccccc1	inactive
CC(C)(C)c1ccc(C(=O)CCCN2CCC(OC(c3ccccc3)c3ccccc3)CC2)cc1	active
Cc1c(C)c2c(c(C)c1O)CCC(C)(COc1ccc(CC3SC(=O)NC3=O)cc1)O2 (stereo unspecified)	inactive
CCCCCOC(=O)CCCC	inactive
CC[C@@]1(O)C(=O)OCc2c1cc1n(c2=O)Cc2c-1nc1ccccc1c2/C=N/OC(C)(C)C	inactive
O=C(Nc1cccc(Cl)c1)OCC#CCCl	inactive
O=C(NOCC1CC1)c1ccc(F)c(F)c1Nc1ccc(I)cc1Cl	inactive
COC(=O)C1=C(C)NC(C)=C(C(=O)OCC(C)C)C1c1ccccc1[N+](=O)[O-] (stereo unspecified)	inactive
NC(=O)N1C(=O)C(C(=O)c2cc(Cl)cs2)c2cc(F)c(Cl)cc21 (stereo unspecified)	inactive
CSc1cnc(C)cn1	inactive
OCCN(CCO)c1nc(N2CCCCC2)c2nc(N(CCO)CCO)nc(N3CCCCC3)c2n1	inactive
CCCCN(CCCC)C(=O)N(CCCC)CCCC	inactive
Cc1cc2c(cc1C(F)(F)F)N(C(=O)Nc1ccc(Oc3cccnc3C)nc1)CC2	inactive
CC(C)OC(=O)c1cc2c(OCC(O)CNC(C)(C)C)cccc2[nH]1 (stereo unspecified)	inactive
O=c1[nH]cnc2nc[nH]c12	inactive
Cc1cc(O)c2ccccc2c1O	active
O=c1[nH]sc2ccccc12	inactive
CCCCCCCCOC(=O)c1ccc(O)cc1	inactive
CSc1ccc(C(=O)c2[nH]c(=O)[nH]c2C)cc1	inactive
On1ccccc1=S	inactive
CN(C)CCCOC1(Cc2ccccc2)CCCCCC1	inactive
CC[C@H](c1ccc(O)cc1)[C@@H](CC)c1ccc(O)cc1	inactive
